subject_of_test: Trace amine-associated receptor 1 (Mus musculus, UniProt Q923Y8)
Sequence (Q923Y8 whole entry): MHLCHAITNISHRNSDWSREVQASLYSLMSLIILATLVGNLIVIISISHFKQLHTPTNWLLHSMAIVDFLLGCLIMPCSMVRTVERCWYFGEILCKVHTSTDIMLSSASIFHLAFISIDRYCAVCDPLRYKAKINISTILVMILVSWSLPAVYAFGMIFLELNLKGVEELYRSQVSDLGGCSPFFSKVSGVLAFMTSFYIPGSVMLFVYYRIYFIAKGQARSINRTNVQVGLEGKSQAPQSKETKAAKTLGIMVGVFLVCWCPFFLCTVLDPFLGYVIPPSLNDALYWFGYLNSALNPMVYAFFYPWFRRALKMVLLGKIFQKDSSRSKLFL
experiment_description: Radioligand Binding: The TAAR1 radioligand 3[H](S)-4-[(ethyl-phenyl-amino)-methyl]-4,5-dihydro-oxazol-2-ylamine (described in WO 2008/098857) was used at a concentration equal to the calculated Kd value, that was usually around 0.7 nM, resulting in the binding of approximately 0.5% of the radioligand and a specific binding representing approximately 70% of the total binding. Nonspecific binding was defined as the amount of 3[H](S)-4-[(ethyl-phenyl-amino)-methyl]-4,5-dihydro-oxazol-2-ylamine bound in the presence of 10 uM unlabeled ligand. All compounds were tested at a broad range of concentrations ([…]) in duplicates.
readout_kind: pKi
Bear in mind: pKi is minus log10 of a mol/L concentration; give just that figure.

stdin: Output measured pKi for this item: COc1cccc(-c2cc(C(=O)Nc3ccc([C@H]4CNCCO4)cc3)n(C)n2)c1
stdout: 8.19
